target: TcTryR (recombinant T. cruzi trypanothione reductase) (Trypanosoma cruzi, UniProt P28593); assay: 412 nm DTNB-coupled trypanothione reductase assay (IC50, Km); conditions: 412 nm assay, T(S)2 at S = Km (10.4 μM), weighted mean of three occasions
Sequence (P28593 whole entry): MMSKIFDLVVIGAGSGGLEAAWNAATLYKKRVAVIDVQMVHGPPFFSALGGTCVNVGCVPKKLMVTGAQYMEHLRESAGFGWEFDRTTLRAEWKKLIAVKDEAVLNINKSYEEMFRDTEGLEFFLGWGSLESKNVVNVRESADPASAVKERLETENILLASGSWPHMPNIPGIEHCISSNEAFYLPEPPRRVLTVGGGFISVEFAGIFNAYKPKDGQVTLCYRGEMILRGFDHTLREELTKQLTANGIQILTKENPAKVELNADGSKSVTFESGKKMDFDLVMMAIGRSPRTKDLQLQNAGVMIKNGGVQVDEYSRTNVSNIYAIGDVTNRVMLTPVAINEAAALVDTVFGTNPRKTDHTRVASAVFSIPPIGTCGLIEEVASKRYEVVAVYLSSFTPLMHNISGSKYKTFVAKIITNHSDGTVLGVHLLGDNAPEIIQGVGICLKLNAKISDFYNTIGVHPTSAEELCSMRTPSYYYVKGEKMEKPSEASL
pIC50 reference
pIC50 is defined as minus the log10 of a concentration measured in mol/L.

record.smiles: CN(C)CCC(=O)c1ccc(Cl)c(Cl)c1
quantitative.readout: 5.10
--
record.smiles: CN1CCN(CCCN2c3ccccc3Sc3ccc(C(F)(F)F)cc32)CC1
quantitative.readout: 4.68

Challenge: Consider the compound shown here: O=c1c2ccccc2[se]n1-c1ccccc1 What is its recorded pIC50?
Response given: 6.22
